- TARGET_OF_ASSAY: recombinant human MAO-B (monoamine oxidase-B) (Homo sapiens, UniProt P27338)
- Construct: purchased Sigma-Aldrich
- Sequence (P27338 1-520): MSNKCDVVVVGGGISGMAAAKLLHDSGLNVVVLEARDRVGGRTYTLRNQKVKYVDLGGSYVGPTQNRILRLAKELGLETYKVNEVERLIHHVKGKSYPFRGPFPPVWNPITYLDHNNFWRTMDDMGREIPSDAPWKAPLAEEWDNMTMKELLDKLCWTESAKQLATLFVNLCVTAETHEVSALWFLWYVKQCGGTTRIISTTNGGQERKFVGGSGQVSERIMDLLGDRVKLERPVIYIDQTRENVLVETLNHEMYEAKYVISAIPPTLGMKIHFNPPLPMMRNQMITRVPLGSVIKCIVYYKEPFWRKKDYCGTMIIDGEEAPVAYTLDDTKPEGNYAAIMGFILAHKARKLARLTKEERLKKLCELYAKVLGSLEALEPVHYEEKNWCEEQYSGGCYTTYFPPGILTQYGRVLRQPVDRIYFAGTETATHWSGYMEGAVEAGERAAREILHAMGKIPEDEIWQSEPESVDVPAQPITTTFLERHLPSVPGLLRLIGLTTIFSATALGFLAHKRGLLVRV
- TEST_DETAILS: Activity on recombinant human MAO-B, Amplex Red method, 1 mM benzylamine substrate
- Assay type: biochemical
- CONDITION_CONTEXT: 1 mM benzylamine substrate, read-out: Inhibitory Activity (IC50, nM) MAO-B
Where a name gives a salt, the structure may show the parent alone.
RECORDED_ENDPOINT: IC50 (nM)

• NC/C(=C\F)Cn1ncn(-c2ncc(-c3cccc(-c4nnc[nH]4)c3)s2)c1=O = 9.2

I: NC/C(=C\F)Cn1ncn(-c2cccc(C#Cc3cnc4c(c3)OCC(=O)N4)n2)c1=O
II: NC/C(=C\F)Cn1ncn(-c2cccc(-c3ccc4c(c3)NC(=O)OC4)n2)c1=O [Example 200, hydrochloride]
III: Cc1cc(-c2ccc3nonc3c2)cnc1-n1cnn(C/C(=C/F)CN)c1=O [Example 152, hydrochloride]
IV: NC/C(=C\F)Cn1ncn(-c2ncc(-c3ccc4c(c3)OCO4)cc2F)c1=O [Example 162, hydrochloride]
**Q:** Rank items: key IC50, increasing. Answer with the labels in sequence, matching the requested order.
**A:** IV, III, II, I
